# experiment_notes: chemical genetic growth profiling, strain panel (AID 1159580);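 note: tested at 20 µM; growth read once vehicle control cultures reached saturation at 30 °C; 1 = growth at the plate median or of vehicle wells; lower values mean less growth of the strain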
# condition_description: S. cerevisiae deletion strains, growth OD, locus YEL061C, strain CIN8 (second series), active compounds read low
Hit rate of the full screen: of about 5,500 compounds, about 2,000 (36%) were called active. About 18% were inconclusive and are not listed. The list shows a part of the results. Where a SMILES comes first, the peptide text is derived from it. Side-chain parts run from the residue outwards. [ ]: non-standard residue; d: D form. The star is where a group is joined. X1 = CCC(C)C(N)C1=NC(C(=O)*)CS1; Orn = NCCC[CH](N)C(=O)O
recorded_metric: normalized growth

[[record]]
compound = "C#CC1(O)CCC2C3CCC4=CC(=O)CCC4(C)C3CCC21C (centres undefined)"
recorded_metric = "normalized growth"
reported_value = 0.965

[[record]]
compound = "C[C@]12CCC(=O)C=C1CCC1C2[C@@H](O)C[C@@]2(C)C1CC[C@]2(O)C(=O)COC(=O)CCC(=O)O (some centres undefined)"
recorded_metric = "normalized growth"
reported_value = 1.03

[[record]]
compound = "CCC(C)C(N)C1=NC(C(=O)NC(CC(C)C)C(=O)NC(CCC(=O)O)C(=O)NC(C(=O)NCCCCC2NC(=O)C(CC(N)=O)NC(=O)C(CC(=O)O)NC(=O)C(Cc3cnc[nH]3)NC(=O)C(Cc3ccccc3)NC(=O)C(C(C)CC)NC(=O)C(CCCN)NC2=O)C(C)CC)CS1 (stereo not drawn) (cyclo(DNK([Ile-Glu-Leu-X1])[Orn]IFH); configuration not given here)"
recorded_metric = "normalized growth"
reported_value = 1.01

[[record]]
compound = "CC(=O)OC[C@H]1O[C@@H](Oc2cc(OC(C)=O)c3c(=O)cc(-c4ccc(OC(C)=O)cc4)oc3c2)[C@H](OC(C)=O)[C@@H](OC(C)=O)[C@@H]1OC(C)=O"
recorded_metric = "normalized growth"
reported_value = 0.999

[[record]]
compound = "OCc1c[nH]c2ccccc12"
recorded_metric = "normalized growth"
reported_value = 0.975

[[record]]
compound = "C=C(C)[C@@H]1CC[C@]2(CO)CC[C@]3(C)[C@H](CCC4[C@@]5(C)CC[C@H](O)C(C)(C)C5CC[C@]43C)C12 (some centres undefined)"
recorded_metric = "normalized growth"
reported_value = 1

[[record]]
compound = "COc1c2c(cc3c1OCO3)C13C=C[C@H](OC)CC1N(C2)CC3O (some centres undefined)"
recorded_metric = "normalized growth"
reported_value = 0.984

[[record]]
compound = "NCCc1c[nH]c2ccccc12"
recorded_metric = "normalized growth"
reported_value = 0.957

[[record]]
compound = "CC(=O)OCC1=C(C(=O)O)N2C(=O)[C@@H](NC(=O)CCCC(N)C(=O)O)C2SC1 (some centres undefined)"
recorded_metric = "normalized growth"
reported_value = 0.991

[[record]]
compound = "CNC(Cc1c[nH]c2ccccc12)C(=O)O (centres undefined)"
recorded_metric = "normalized growth"
reported_value = 0.976

[[record]]
compound = "CC(=O)N[C@@H](Cc1c[nH]c2ccccc12)C(=O)O"
recorded_metric = "normalized growth"
reported_value = 0.985

[[record]]
compound = "CNS(=O)(=O)c1ccc(NC(=O)c2ccccc2C(=O)O)cc1"
recorded_metric = "normalized growth"
reported_value = 0.999

[[record]]
compound = "COc1cc(O)cc(OC)c1OC"
recorded_metric = "normalized growth"
reported_value = 0.961

[[record]]
compound = "O=C(OC[C@H]1O[C@H](OC(=O)c2cc(O)c(O)c(OC(=O)c3cc(O)c(O)c(O)c3)c2)[C@H](OC(=O)c2cc(O)c(O)c(OC(=O)c3cc(O)c(O)c(O)c3)c2)[C@@H](OC(=O)c2cc(O)c(O)c(OC(=O)c3cc(O)c(O)c(O)c3)c2)[C@@H]1OC(=O)c1cc(O)c(O)c(OC(=O)c2cc(O)c(O)c(O)c2)c1)c1cc(O)c(O)c(OC(=O)c2cc(O)c(O)c(O)c2)c1"
recorded_metric = "normalized growth"
reported_value = 0.926

